Assay: Cytotoxicity against human NNC2 cells assessed as decrease in GAPDH RNA level after 3 days by RT-PCR
Type: cell-based
Details: NNC2 cells
Each item that follows carries a reported CC50 at 72 h.

- Molecule: "CCCCn1c(=O)c2ccc3ccccc3c2c2ccccc21"
  Comparative sign: "="
  CC50 at 72 h [µM]: 31.4
- Molecule: "CCCCn1c(=O)c2ccccc2c2cc3ccccc3cc21"
  Comparative sign: "="
  CC50 at 72 h [µM]: 6.3
- Molecule: "CCCCn1c(=O)c2ccccc2c2cc(C)ccc21"
  Comparative sign: "="
  CC50 at 72 h [µM]: 38.4
- Molecule: "CCCCn1c(=O)c2ccccc2c2cc(C(C)=O)ccc21"
  Comparative sign: "="
  CC50 at 72 h [µM]: 27.3
- Molecule: "CCCCCCn1c(=O)c2ccccc2c2cc(C(O)(C(F)(F)F)C(F)(F)F)ccc21"
  Comparative sign: "="
  CC50 at 72 h [µM]: 12.2
- Molecule: "O=c1c2ccccc2c2cc(C(O)(C(F)(F)F)C(F)(F)F)ccc2n1CC(F)(F)F"
  Comparative sign: "="
  CC50 at 72 h [µM]: 30.3
- Molecule: "O=c1c2ccccc2c2cc(C(O)(C(F)(F)F)C(F)(F)F)ccc2n1CC1CCCCC1"
  Comparative sign: "="
  CC50 at 72 h [µM]: 14.4
- Molecule: "CCCCn1c(=O)c2cc3ccccc3cc2c2ccccc21"
  Comparative sign: ">"
  CC50 at 72 h [µM]: 40
- Molecule: "CCCCn1c(=O)c2c3ccccc3ccc2c2ccccc21"
  Comparative sign: ">"
  CC50 at 72 h [µM]: 40
- Molecule: "CCCCn1c(=O)c2ccccc2c2cc(O)ccc21"
  Comparative sign: "="
  CC50 at 72 h [µM]: 43.7
- Molecule: "CCCCn1c(=O)c2ccccc2c2c3ccccc3ccc21"
  Comparative sign: "="
  CC50 at 72 h [µM]: 44.5
- Molecule: "O=c1c2ccccc2c2cc(C(O)(C(F)(F)F)C(F)(F)F)ccc2n1Cc1ccccc1"
  Comparative sign: "="
  CC50 at 72 h [µM]: 18.2
- Molecule: "CCCCn1c(=O)c2ccccc2c2cc(CCc3ccccc3)ccc21"
  Comparative sign: "="
  CC50 at 72 h [µM]: 24.1
- Molecule: "CCCCn1c(=O)c2ccccc2c2cc(C(F)(F)F)ccc21"
  Comparative sign: ">"
  CC50 at 72 h [µM]: 50
- Molecule: "CCCCn1c(=O)c2ccccc2c2ccc3ccccc3c21"
  Comparative sign: "="
  CC50 at 72 h [µM]: 24.3
- Molecule: "CCCCn1c(=O)c2ccccc2c2cc(C(C)C)ccc21"
  Comparative sign: "="
  CC50 at 72 h [µM]: 29.7
- Molecule: "CCCCn1c(=O)c2ccccc2c2ccccc21"
  Comparative sign: "="
  CC50 at 72 h [µM]: 58.3
- Molecule: "CC1(C)CCC(C)(C)c2cc3c(cc21)c1ccccc1c(=O)n3Cc1ccccc1"
  Comparative sign: "="
  CC50 at 72 h [µM]: 31.8
- Molecule: "CCCCn1c(=O)c2ccccc2c2cc(C(C)(C)C)ccc21"
  Comparative sign: "="
  CC50 at 72 h [µM]: 24.9
- Molecule: "CCCCn1c(=O)c2ccccc2c2cc(CO)ccc21"
  Comparative sign: ">"
  CC50 at 72 h [µM]: 50
- Molecule: "CCCCn1c(=O)c2ccccc2c2cc(C(C)O)ccc21 (stereo not drawn)"
  Comparative sign: "="
  CC50 at 72 h [µM]: 51.4
- Molecule: "CCCCn1c(=O)c2ccccc2c2cc(C(O)(C(F)(F)F)C(F)(F)F)ccc21"
  Comparative sign: "="
  CC50 at 72 h [µM]: 12.5
- Molecule: "CCCCCCCCCn1c(=O)c2ccccc2c2cc(C(O)(C(F)(F)F)C(F)(F)F)ccc21"
  Comparative sign: "="
  CC50 at 72 h [µM]: 10.2
